The values you see were collected from ChEMBL document CHEMBL1961873.

system: Platelet-derived growth factor receptor alpha (Homo sapiens), P16234 [V561D]; details: at 0.1 µM
Sequence (P16234 whole entry V561D): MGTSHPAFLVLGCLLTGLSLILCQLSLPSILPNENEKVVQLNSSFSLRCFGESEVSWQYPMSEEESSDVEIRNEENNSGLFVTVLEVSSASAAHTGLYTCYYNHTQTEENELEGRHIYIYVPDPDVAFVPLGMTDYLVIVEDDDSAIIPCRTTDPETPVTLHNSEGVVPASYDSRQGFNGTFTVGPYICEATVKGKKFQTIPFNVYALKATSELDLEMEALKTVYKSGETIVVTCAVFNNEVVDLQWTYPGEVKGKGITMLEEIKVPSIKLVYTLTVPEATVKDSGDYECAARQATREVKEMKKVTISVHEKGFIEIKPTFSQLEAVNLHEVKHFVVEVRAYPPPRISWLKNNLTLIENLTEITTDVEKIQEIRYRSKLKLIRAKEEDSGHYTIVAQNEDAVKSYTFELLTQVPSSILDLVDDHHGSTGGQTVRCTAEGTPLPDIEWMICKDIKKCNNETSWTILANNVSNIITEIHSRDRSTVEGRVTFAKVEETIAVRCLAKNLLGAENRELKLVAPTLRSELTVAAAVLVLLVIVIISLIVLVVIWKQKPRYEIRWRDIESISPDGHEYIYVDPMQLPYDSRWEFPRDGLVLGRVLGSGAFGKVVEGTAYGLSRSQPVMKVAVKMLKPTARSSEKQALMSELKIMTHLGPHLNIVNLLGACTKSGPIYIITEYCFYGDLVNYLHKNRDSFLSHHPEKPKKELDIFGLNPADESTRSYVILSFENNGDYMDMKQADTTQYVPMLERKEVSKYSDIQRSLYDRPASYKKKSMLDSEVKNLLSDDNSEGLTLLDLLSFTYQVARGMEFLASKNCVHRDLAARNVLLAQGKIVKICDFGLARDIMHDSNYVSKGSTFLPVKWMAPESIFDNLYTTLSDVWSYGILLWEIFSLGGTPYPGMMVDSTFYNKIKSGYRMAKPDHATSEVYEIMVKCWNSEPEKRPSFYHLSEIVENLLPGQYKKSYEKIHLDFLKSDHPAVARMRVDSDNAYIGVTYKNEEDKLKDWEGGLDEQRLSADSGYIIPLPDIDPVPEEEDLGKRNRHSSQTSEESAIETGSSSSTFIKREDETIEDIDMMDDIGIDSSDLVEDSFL
Test readout: inhibition (%)
Please reply with the bare figure in % and do not write the unit itself.

Solved entries (count: 6):
C#Cc1cccc(Nc2ncnc3ccc(OCCCCNCCS(C)(=O)=O)cc23)c1 : 5.37
COc1ccc2cc(-c3c(-c4ccncc4)nc(-c4ccc(S(C)(=O)=O)cc4C)n3C)ccc2c1 : 8.36
FC(F)(F)c1cccc(Nc2nccc(-c3cnn4nc(-c5ccccc5)ccc34)n2)c1 : 6.8
CS(=O)(=O)CCNCc1ccc(-c2ccc3ncnc(Nc4ccc(OCc5ccccc5)c(Br)c4)c3c2)o1 : 3.03
CN(c1ccc(NC(=O)Nc2c(Cl)cccc2Cl)cc1)c1ccnc(Nc2cccc(CS(C)(=O)=O)c2)n1 : 78.7
CCC(=O)Nc1ccc(C)c(-c2ccc(C(=O)NCC3CC3)cc2)c1 : 4.95

What value of measured inhibition is listed for "C[C@@H](Oc1cc(-n2cnc3ccc(OC4CCN(C)CC4)cc32)sc1C(N)=O)c1ccccc1Cl" ?
14.5

Again, but for "O=C(Nc1ccc(Oc2ccc3[nH]c(NC(=O)c4ccccc4)nc3c2)cc1)Nc1cc(C(F)(F)F)ccc1F"
25.5

Again, but for "O=C(Nc1n[nH]c2cc(-c3ccccc3)ccc12)C1CC1"
4.85

###

inhibition: recorded values
Biological target: Protein kinase C iota type (Homo sapiens) (UniProt P41743);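 note: reported figures are mean inhibition values from the GSK PKIS screen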
Sequence (whole entry): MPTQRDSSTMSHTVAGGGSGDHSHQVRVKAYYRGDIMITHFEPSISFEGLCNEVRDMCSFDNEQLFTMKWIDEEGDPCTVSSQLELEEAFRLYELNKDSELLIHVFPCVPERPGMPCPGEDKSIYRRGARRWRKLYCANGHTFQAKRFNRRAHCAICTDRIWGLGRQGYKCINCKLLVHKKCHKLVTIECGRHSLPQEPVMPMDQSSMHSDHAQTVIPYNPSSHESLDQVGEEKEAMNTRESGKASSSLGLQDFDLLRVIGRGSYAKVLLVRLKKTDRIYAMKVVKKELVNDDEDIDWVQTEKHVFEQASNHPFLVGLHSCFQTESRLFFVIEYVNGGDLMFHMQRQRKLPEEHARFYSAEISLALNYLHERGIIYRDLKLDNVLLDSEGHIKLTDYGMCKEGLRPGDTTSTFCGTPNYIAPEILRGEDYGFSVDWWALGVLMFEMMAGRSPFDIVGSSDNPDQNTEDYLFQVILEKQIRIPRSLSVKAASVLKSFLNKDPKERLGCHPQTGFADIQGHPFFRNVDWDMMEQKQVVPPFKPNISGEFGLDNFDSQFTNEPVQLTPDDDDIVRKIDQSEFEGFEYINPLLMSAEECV
Settings: at 1 µM
Please reply with the bare figure in % and do not write the unit itself.

Solved entries (count: 5):
Fc1ccc(-c2c(-c3ccncc3)nc3n2CCS3)cc1 : 1.01
C#Cc1cccc(Nc2ncnc3ccc(OCCCCNCCS(C)(=O)=O)cc23)c1 : 1.19
CCN(CC)Cc1ccc(Nc2nccc(-c3cnn4ncccc34)n2)cc1 : 2.03
Clc1ccc(CNc2nccc(-c3cnn4ncccc34)n2)cc1 : -1.34
CN(C)CCOc1ccc(-c2cc(-c3ccc4c(c3)CCC4=NO)c(-c3ccncc3)o2)cc1 : -1.84

Observed inhibition on Protein kinase C iota type (Homo sapiens) (UniProt P41743) for "O=C1Nc2ccccc2/C1=C/Nc1ccc(-n2cncn2)cc1" , please.
2.15

Again, but for "Cc1ccc(C(=O)NC(C)C)cc1-c1ccc(C(=O)NCC2CC2)cc1"
-0.8

Again, but for "COc1ccc(-c2ccc3c(NC(=O)C4CC4)n[nH]c3n2)cc1"
-0.23

Again, but for "NC(=O)c1ccc(Oc2nccc(-c3c(-c4ccc(F)cc4)ncn3C3CCNCC3)n2)cc1"
1.91

###

target: Serine/threonine-protein kinase Nek7 (Homo sapiens); settings: at 0.1 µM;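 note: figures are averaged percent inhibition of NEK7 kinase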
Test readout: inhibition (%)
Please reply with the bare figure in % and do not write the unit itself.

COc1cc(C)c(N(C)C(=O)CN(C)C)cc1Nc1nc(Nc2cccc(F)c2C(N)=O)c2cc[nH]c2n1 : 3.13
NS(=O)(=O)c1ccc(N/N=C2\C(=O)Nc3ccc(C(=O)NCCCn4ccnc4)cc32)cc1 : 6.31
Fc1ccc(-c2ncn(CCCN3CCOCC3)c2-c2ccncc2)cc1 : 2.31
O=C(Nc1ccc(Oc2ccc3[nH]c(NC(=O)c4ccccc4)nc3c2)cc1)Nc1cc(C(F)(F)F)ccc1F : 4.29
O=C(Nc1n[nH]c2cc(-c3ccccc3)ccc12)C1CC1 : 5.67

Observed inhibition on Serine/threonine-protein kinase Nek7 (Homo sapiens) for "COc1cc(Nc2ncc3c(C)nc(-c4cccc(Oc5ccccc5)c4)n3n2)cc(OC)c1OC" , please.
4.1

Again, but for "CNC(=O)c1cncc(/C=C/c2c(C)cccc2C)c1"
-1.37

Again, but for "Cc1ccc(NC(=O)c2ccoc2)cc1-c1ccc(C(=O)NCC2CC2)cc1"
0.66

Again, but for "CS(=O)(=O)CCNCc1ccc(-c2ccc3ncnc(Nc4ccc(OCc5ccccc5)c(Br)c4)c3c2)o1"
3.08

Again, but for "COc1cc2ncn(-c3cc(OCCc4ccccc4)c(C(N)=O)s3)c2cc1OC"
3.01

###

target: Angiopoietin-1 receptor (Homo sapiens); settings: at 1 µM;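 note: reported value is the mean TIE2 inhibition from the GSK PKIS dataset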
inhibition: recorded values
Please reply with the bare figure in % and do not write the unit itself.

Solved entries (count: 3):
CCN(CC)Cc1ccc(Nc2nccc(-c3cnn4ncccc34)n2)cc1 : 12.2
Fc1ccc(-c2ncn(CCCN3CCOCC3)c2-c2ccncc2)cc1 : 1.99
O=C1NC(=O)C(c2cccc(Cl)c2)=C1Nc1ccc(Cl)c(C(=O)O)c1 : 4.22

Next:
What value of measured inhibition is listed for "CCc1nccc2c1nc(-c1nonc1N)n2CC" ?
5.08

###

target: Glycogen synthase kinase-3 alpha (Homo sapiens); conditions: at 0.1 µM;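 note: values are mean inhibition of GSK3A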
inhibition: recorded values
Please reply with the bare figure in % and do not write the unit itself.

Solved entries (count: 3):
Cc1ccc(C(=O)NC(C)C)cc1-c1ccc(C(=O)NCC2CC2)cc1 : 1.52
COc1cc2ncn(-c3cc(OCCc4ccccc4)c(C(N)=O)s3)c2cc1OC : 0.82
C[C@@H](Oc1cc(-n2cnc3ccc(OCC4CCN(C)CC4)cc32)sc1C(N)=O)c1ccccc1Cl : 4.39

What value of measured inhibition is listed for "CN(C)c1ccc2c(c1)/C(=C/Nc1ccc(S(N)(=O)=O)cc1)C(=O)N2" ?
8.28

Again, but for "Fc1ccc(-c2nc3n(c2-c2ccncc2)CCS3)cc1"
-0.87

Again, but for "O=C(Nc1n[nH]c2nc(-c3ccc(O)cc3)c(Br)cc12)C1CC1"
82.8

Again, but for "CN(c1ccc(NC(=O)Nc2c(Cl)cccc2Cl)cc1)c1ccnc(Nc2cccc(CS(C)(=O)=O)c2)n1"
4.09

Again, but for "CNC(=O)c1cncc(/C=C/c2c(C)cccc2C)c1"
-2.93

Again, but for "CCC(=O)Nc1ccc(C)c(-c2ccc(C(=O)NCC3CC3)cc2)c1"
1.84

Again, but for "C[C@@H](Oc1cc(-n2cnc3ccc(OC4CCN(C)CC4)cc32)sc1C(N)=O)c1ccccc1Cl"
-1.18

###

biological target: Macrophage colony-stimulating factor 1 receptor (Homo sapiens); details: at 0.1 µM;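 note: value reported is the mean inhibition of FMS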
Test readout: inhibition (%)
Please reply with the bare figure in % and do not write the unit itself.

What value of measured inhibition is listed for "NC(=O)c1cc(-c2ccc(F)cc2)cc(-c2ccncc2)c1N" ?
2.97

Again, but for "N#Cc1ccc(Oc2nccc(-c3c(-c4ccc(F)cc4)ncn3C3CCNCC3)n2)cc1"
0.11

Again, but for "O=C(Nc1ccc(Oc2ccc3[nH]c(NC(=O)c4ccccc4)nc3c2)cc1)Nc1cc(C(F)(F)F)ccc1F"
4.75

Again, but for "COc1cccc(-n2cnc3c(N/N=C/c4ccncc4)ncnc32)c1"
4.43

###

target: Leucine-rich repeat serine/threonine-protein kinase 2 (Homo sapiens); settings: at 0.1 µM;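 note: reported values are averaged percent inhibition of LRRK2 kinase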
Test readout: inhibition (%)
Please reply with the bare figure in % and do not write the unit itself.

Solved entries (count: 6):
COc1ccc2ncn(-c3cc(O[C@H](C)c4ccccc4Cl)c(C(N)=O)s3)c2c1 : -2.19
Cc1ccc(C(=O)NC(C)C)cc1-c1ccc(C(=O)NCC2CC2)cc1 : -0.57
C/C(Nc1ccc(S(N)(=O)=O)cc1)=C1/C(=O)Nc2ccccc21 : 3.27
CCC(=O)Nc1ccc(C)c(-c2ccc(C(=O)NCC3CC3)cc2)c1 : -0.86
NC(=O)Cc1ccccc1Oc1nccc(-c2c(-c3ccc(F)cc3)ncn2C2CCNCC2)n1 : 6.61
CNC(=O)c1cncc(/C=C/c2c(C)cccc2C)c1 : -5.56

What value of measured inhibition is listed for "CN(C)CCCNc1nccc(-c2c(-c3ccc(F)cc3)nn3cc(C(F)(F)F)ccc23)n1" ?
-2

Again, but for "NS(=O)(=O)c1ccc(Nc2cc(-c3ccc(O)c(F)c3)n[nH]2)cc1"
1.51

Again, but for "COc1ccc(-c2ccc3c(NC(=O)C4CC4)n[nH]c3n2)cc1"
1.6

Again, but for "COc1cccc(/C=N/Nc2ncnc3c2cnn3-c2cccc(OC)c2)c1"
-1.62

Again, but for "NC(=O)c1ccc(Oc2nccc(-c3c(-c4ccc(F)cc4)ncn3C3CCNCC3)n2)cc1"
0.29

Again, but for "CCc1nccc2c1nc(-c1nonc1N)n2CC"
0.68

Again, but for "CN1CCN(CCCNc2nc3ccc(Oc4ccc(NC(=O)Nc5cc(C(F)(F)F)ccc5F)cc4)cc3[nH]2)CC1"
0.2

Again, but for "COc1cc2ncn(-c3cc(OCc4cccs4)c(C(N)=O)s3)c2cc1OC"
2.29

Again, but for "Cc1ccc(NC(=O)c2ccoc2)cc1-c1ccc(C(=O)NCC2CC2)cc1"
1.24
